Origin of measurements: patent US10124009B2

Measured Cmax by item
experiment: IV and oral pharmacokinetics in male Sprague-Dawley rats; format: in vivo, rat; settings: male, Sprague-Dawley; PO Dose (5 mg/kg), rat plasma

[
  {
    "Compound": "Cc1sc2c(c1C)C(c1ccc(Cl)cc1)=N[C@@H](CC(=O)OC1CCC(O)CC1)c1nnc(C)n1-2 (stereo partly shown)",
    "Cmax (ng/mL)": 619
  },
  {
    "Compound": "Cc1sc2c(c1C)C(c1ccc(Cl)cc1)=N[C@@H](CC(=O)OCC(C)O)c1nnc(C)n1-2 (stereo partly shown)",
    "Cmax (ng/mL)": 820
  },
  {
    "Compound": "Cc1sc2c(c1C)C(c1ccc(Cl)cc1)=N[C@@H](CC(=O)OCCCCCCO)c1nnc(C)n1-2",
    "Cmax (ng/mL)": 12.2
  },
  {
    "Compound": "Cc1sc2c(c1C)C(c1ccc(Cl)cc1)=N[C@@H](CC(=O)OCCCO)c1nnc(C)n1-2",
    "Cmax (ng/mL)": 480
  }
]

* * *

assay: in vitro; conditions: human, Caco-2, Mean Papp, A-B
Value Kind: Papp A→B at 2 h, 10 μM (×10⁻⁶ cm/s)

[
  {
    "Compound": "CC(=O)CC(c1ccccc1)c1c(O)c2ccccc2oc1=O (stereo not shown) [Warfarin]",
    "Unit Abbreviation": "×10⁻⁶ cm/s",
    "Endpoint Result": 38.8
  }
]

* * *

test: in vitro; settings: human, Caco-2

[
  {
    "Molecule": "CC(=O)CC(c1ccccc1)c1c(O)c2ccccc2oc1=O (stereo not shown)",
    "recovery at 2 h, 10 μM [%]": 99.9
  }
]

* * *

assay: Caco-2 permeability assay; settings: human, Caco-2, Mean Papp, A-B, Assay Conc. 10 μM; 2 hours
Record True whenever Papp A→B at 2 h, 10 μM is at 30 ×10⁻⁶ cm/s or higher; record False when lower.

[
  {
    "Molecule": "Cc1sc2c(c1C)C(c1ccc(Cl)cc1)=N[C@@H](CC(=O)OC(C)(C)C)c1nnc(C)n1-2 [(S)-JQ1, reference compound]",
    "Cat": "True"
  },
  {
    "Molecule": "Cc1sc2c(c1C)C(c1ccc(Cl)cc1)=N[C@@H](CC(=O)OC/C(Br)=C(\\Br)CO)c1nnc(C)n1-2 [Compound 7]",
    "Cat": "True"
  },
  {
    "Molecule": "Cc1sc2c(c1C)C(c1ccc(Cl)cc1)=N[C@@H](CC(=O)OCC(O)CO)c1nnc(C)n1-2 (some centres unmarked) [Compound 6]",
    "Cat": "False"
  },
  {
    "Molecule": "Cc1sc2c(c1C)C(c1ccc(Cl)cc1)=N[C@@H](CC(=O)OCCCO)c1nnc(C)n1-2 [Compound 4]",
    "Cat": "True"
  },
  {
    "Molecule": "Cc1sc2c(c1C)C(c1ccc(Cl)cc1)=N[C@@H](CC(=O)OCCCCCCO)c1nnc(C)n1-2 [Compound 5]",
    "Cat": "True"
  }
]

* * *

Measured bioavailability by item
test: IV and oral pharmacokinetics in male Sprague-Dawley rats; format: in vivo, rat; settings: male, Sprague-Dawley, rat, plasma; PO 5 mg/kg; read-out: oral bioavailability F
Value Kind: bioavailability

[
  {
    "Molecule": "Cc1sc2c(c1C)C(c1ccc(Cl)cc1)=N[C@@H](CC(=O)OCCCO)c1nnc(C)n1-2",
    "Value Kind": "bioavailability",
    "Endpoint Result": "> 23%"
  },
  {
    "Molecule": "Cc1sc2c(c1C)C(c1ccc(Cl)cc1)=N[C@@H](CC(=O)OC1CCC(O)CC1)c1nnc(C)n1-2 (stereo partly drawn)",
    "Value Kind": "bioavailability",
    "Endpoint Result": "> 23%"
  },
  {
    "Molecule": "Cc1sc2c(c1C)C(c1ccc(Cl)cc1)=N[C@@H](CC(=O)OCC(C)O)c1nnc(C)n1-2 (stereo partly drawn)",
    "Value Kind": "bioavailability",
    "Endpoint Result": "> 23%"
  }
]
